- ASSAY_TARGET: Serine/threonine-protein kinase B-raf (Homo sapiens, UniProt P15056, V600E)
- Sequence (P15056 2-766 V600E limits assumed): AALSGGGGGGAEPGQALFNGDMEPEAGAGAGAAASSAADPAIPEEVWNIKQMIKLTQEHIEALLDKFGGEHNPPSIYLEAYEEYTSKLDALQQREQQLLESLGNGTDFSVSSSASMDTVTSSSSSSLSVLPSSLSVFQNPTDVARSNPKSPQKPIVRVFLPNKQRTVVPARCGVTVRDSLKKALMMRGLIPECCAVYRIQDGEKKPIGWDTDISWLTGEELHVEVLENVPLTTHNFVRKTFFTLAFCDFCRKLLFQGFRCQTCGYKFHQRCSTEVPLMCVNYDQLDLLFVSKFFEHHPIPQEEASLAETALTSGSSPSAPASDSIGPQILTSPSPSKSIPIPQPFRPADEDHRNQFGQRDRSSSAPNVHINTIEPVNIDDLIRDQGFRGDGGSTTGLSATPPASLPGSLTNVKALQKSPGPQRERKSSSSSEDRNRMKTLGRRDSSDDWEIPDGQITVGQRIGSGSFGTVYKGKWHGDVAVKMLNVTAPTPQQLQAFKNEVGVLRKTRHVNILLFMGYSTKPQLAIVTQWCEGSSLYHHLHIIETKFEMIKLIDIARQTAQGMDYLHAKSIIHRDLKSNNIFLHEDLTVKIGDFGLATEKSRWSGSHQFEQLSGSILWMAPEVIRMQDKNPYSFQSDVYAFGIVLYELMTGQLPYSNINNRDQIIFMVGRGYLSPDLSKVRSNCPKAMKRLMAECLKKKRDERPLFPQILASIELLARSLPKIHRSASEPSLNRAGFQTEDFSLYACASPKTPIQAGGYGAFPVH
- METHOD_SUMMARY: Inhibition of human BRAF V600E mutant using myelin basic protein as substrate measured after 40 mins in presence of [gamma33P-ATP] by scintillation counting method
MEASURED_PROPERTY: pIC50
Expect pIC50 as a plain number equal to -log10 of the molar concentration.

Solved entries:
COc1cc(Cl)cc(-c2nn(-c3cccc(NC(=O)Nc4ccc(Cl)c(Cl)c4)c3)cc2-c2ccncc2)c1 = 6.60
O=C(Nc1cccc(-n2cc(-c3ccncc3)c(-c3cc(O)cc(Cl)c3)n2)c1)c1ccccc1 = 7.59

Let's switch to this compound now.
-- ask Find pIC50 (Serine/threonine-protein kinase B-raf (Homo sapiens, UniProt P15056, V600E)) for the entry O=C(Nc1cccc(-n2cc(-c3ccncc3)c(-c3cc(O)cc(Cl)c3)n2)c1)Nc1ccc(Cl)c(C(F)(F)F)c1
-- reply 8.15

----------
- ASSAY_TARGET: Serine/threonine-protein kinase B-raf (Homo sapiens, UniProt P15056, V600E)
- METHOD_SUMMARY: Inhibition of human BRAF V600E mutant using myelin basic protein as substrate measured after 40 mins in presence of [gamma33P-ATP] by scintillation counting method
pIC50: −log10 of the molar value.
Criterion: pIC50 meeting or surpassing 6. Met: true (1). Not met: false (0).

COc1cc(Cl)cc(-c2nn(-c3cccc(NC(=O)c4cc(C(F)(F)F)cc(C(F)(F)F)c4)c3)cc2-c2ccncc2)c1 = false (0)
O=C(Nc1cccc(-n2cc(-c3ccncc3)c(-c3cc(O)cc(Cl)c3)n2)c1)Nc1ccc(Cl)c(Cl)c1 = true (1)
O=C(Nc1cccc(-n2cc(-c3ccncc3)c(-c3cc(O)cc(Cl)c3)n2)c1)c1cc(C(F)(F)F)cc(C(F)(F)F)c1 = true (1)
O=C(Nc1cccc(-n2cc(-c3ccncc3)c(-c3cc(O)cc(Cl)c3)n2)c1)c1ccc(Cl)c(Cl)c1 = true (1)
COc1cc(Cl)cc(-c2nn(-c3cccc(NC(=O)Nc4ccccc4)c3)cc2-c2ccncc2)c1 = true (1)

-- ask Say whether O=C(Nc1cccc(-n2cc(-c3ccncc3)c(-c3cc(O)cc(Cl)c3)n2)c1)Nc1cccc(C(F)(F)F)c1 shows pIC50 of 6 or more.
-- reply true (1)

-- ask # repeat for COc1cc(Cl)cc(-c2nn(-c3cccc(NC(=O)c4ccccc4)c3)cc2-c2ccncc2)c1
-- reply false (0)

-- ask # repeat for COc1cc(Cl)cc(-c2nn(-c3cccc(NC(=O)c4cccc(C(F)(F)F)c4)c3)cc2-c2ccncc2)c1
-- reply true (1)

----------
- ASSAY_TARGET: Serine/threonine-protein kinase B-raf (Homo sapiens, UniProt P15056, V600E)
- METHOD_SUMMARY: Inhibition of human BRAF V600E mutant using myelin basic protein as substrate measured after 40 mins in presence of [gamma33P-ATP] by scintillation counting method
Below: a set of entries, each annotated with reported IC50.
Supply the numeric figure in nM, leaving out any unit text.

Solved entries:
O=C(Nc1cccc(-n2cc(-c3ccncc3)c(-c3cc(O)cc(Cl)c3)n2)c1)c1ccc(N2CCOCC2)c(C(F)(F)F)c1 = 14
COc1cc(Cl)cc(-c2nn(-c3cccc(NC(=O)c4ccc(N5CCOCC5)c(C(F)(F)F)c4)c3)cc2-c2ccncc2)c1 = 348
O=C(Nc1cccc(-n2cc(-c3ccncc3)c(-c3cc(O)cc(Cl)c3)n2)c1)Nc1cc(C(F)(F)F)cc(C(F)(F)F)c1 = 2110

Let's switch to this compound now.
-- ask Find IC50 (Serine/threonine-protein kinase B-raf (Homo sapiens, UniProt P15056, V600E)) for the entry O=C(Nc1ccccc1)Nc1cccc(-n2cc(-c3ccncc3)c(-c3cc(O)cc(Cl)c3)n2)c1
-- reply 919
